# TARGET_UNDER_TEST: IFN-γ (human) (UniProt P01579)
# Sequence: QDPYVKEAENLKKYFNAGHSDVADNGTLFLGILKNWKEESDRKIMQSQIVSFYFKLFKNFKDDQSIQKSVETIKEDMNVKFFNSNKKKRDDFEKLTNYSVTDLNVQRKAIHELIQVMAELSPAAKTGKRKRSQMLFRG
# MEASUREMENT_PROTOCOL: competition
# ASSAY_CONDITIONS: n = Ds unnatural base in DNA; EMSA competition vs 32P-Aptamer 49 (=1.00), PBS, 0.005% NP-40, 37 C
MEASURE_NAME: binding signal
Answers are plain numbers.

The examples below pair each entry with its known result.
MACROMOLECULE_SEQUENCE | binding signal
CCCGCCCGGGTCCGCGAAGCGGTAGGTNTGGGCTAGGCNGCTGGCGGGCGCGAAGCG [Aptamer 57GCmh (IFN-γ)] | 1.53
CCCGCCCGGGTCGCCTANTGGCGTAGGTNTGGGCTAGGCNGCTGGCGGGCGCGAAGCG [Aptamer 58GC (IFN-γ)] | 0.24

List reported binding signal for each of these sequences:
1. TCCACTCGGGTCCGCGAAGCGGTAGGTNTGGGCTAGGCNGCTAGTGGACGCGAAGCG [Aptamer 57mh (IFN-γ)]
2. TCCACTCGGGTCATTTANTAATGTAGGTNTGGGCTAGGCNGCTAGTGGACGCGAAGCG [Aptamer 58 (IFN-γ)]

1.4
1.29

###

# TARGET_UNDER_TEST: IFN-γ (human) (UniProt P01579)
# Sequence: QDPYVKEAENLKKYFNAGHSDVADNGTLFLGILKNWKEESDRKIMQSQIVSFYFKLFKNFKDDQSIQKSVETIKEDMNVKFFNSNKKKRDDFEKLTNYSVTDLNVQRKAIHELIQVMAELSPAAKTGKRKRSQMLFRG
# MEASUREMENT_PROTOCOL: SPR
# ASSAY_CONDITIONS: n = Ds unnatural base in DNA; biotinylated DNA on SA chip, 1x PBS + 50 mM NaCl, 0.05% NP-40, 25 C
MEASURE_NAME: pKd
One number for each entry, as −log10 of the molar value.

MACROMOLECULE_SEQUENCE | REPORTED_MEASUREMENT
CCCGCCCGGGTCCGCGAAGCGGTAGGTNTGGGCTAGGCNGCTGGCGGGCGCGAAGCG [Aptamer 57GCmh (IFN-γ)] | 10.48

# evaluate next
The recorded pKd for entry TCCACTCGGGTCATTTANTAATGTAGGTNTGGGCTAGGCNGCTAGTGGACGCGAAGCG [Aptamer 58 (IFN-γ)] equals 10.42

###

# TARGET_UNDER_TEST: IFN-γ (human) (UniProt P01579)
# Sequence: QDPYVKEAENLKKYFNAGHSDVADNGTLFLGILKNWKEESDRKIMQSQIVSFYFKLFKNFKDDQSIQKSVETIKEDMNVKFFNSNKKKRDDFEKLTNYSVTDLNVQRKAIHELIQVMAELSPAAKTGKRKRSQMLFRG
# MEASUREMENT_PROTOCOL: SPR
# ASSAY_CONDITIONS: n = Ds, 7-(2-thienyl)-3H-imidazo[4,5-b]pyridin-3-yl unnatural base in DNA; biotinylated DNA on SA chip, 1x PBS + 50 mM NaCl, 0.05% NP-40, 25 C
MEASURE_NAME: pKd
Give bare numbers, as −log10 of the molar value.

The recorded pKd for entry TCCACTCGGGTCATTTANTAATGTAGGTNTGGGCTAGGCNGCTAGTGGA [Aptamer 49 (IFN-γ)] equals 10.34
